target-entity: histamine H3 receptor (Rattus norvegicus, UniProt Q9QYN8)
Construct: from tissue
Sequence (Q9QYN8 whole entry): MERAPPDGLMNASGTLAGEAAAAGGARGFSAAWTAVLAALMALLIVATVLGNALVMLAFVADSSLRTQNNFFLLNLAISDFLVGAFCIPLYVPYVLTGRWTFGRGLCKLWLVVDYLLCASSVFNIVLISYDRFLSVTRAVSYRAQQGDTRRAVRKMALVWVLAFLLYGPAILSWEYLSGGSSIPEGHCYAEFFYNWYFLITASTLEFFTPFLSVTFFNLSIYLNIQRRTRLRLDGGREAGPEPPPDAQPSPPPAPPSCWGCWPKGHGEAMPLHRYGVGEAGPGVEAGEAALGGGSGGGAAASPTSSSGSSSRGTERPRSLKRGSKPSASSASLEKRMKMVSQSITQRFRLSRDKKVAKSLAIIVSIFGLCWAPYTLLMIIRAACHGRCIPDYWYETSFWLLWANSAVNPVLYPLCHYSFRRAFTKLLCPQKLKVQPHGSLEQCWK
protocol-summary: inhibition of binding of [3H]-N-alpha-methylhistamine to rat brain membranes
conditions-used: rat brain membranes, 3HNα-methylhistamine as radioligand; Table I first part; read-out: IC50
Protocol: A series of compounds were prepared and tested for their histamine H3 receptor antagonist activity. The antagonist activity of the compounds was detected by observing inhibition of (^3 H)-N-(alpha)methylhistamine activity on rat brain membranes. The various compounds were tested for the ability to bind to the histamine H3 receptor. […]
endpoint: IC50 (nM)
Dear colleague, please return just the value in nM, with no unit written.

IC50 recorded for this compound, O=C(Cc1ccccc1)N1CCC(c2c[nH]cn2)CC1 [Compound 4] , is 1400

Measured values drawn from patent US5639775A for this set.
